biological target: Alpha-2C adrenergic receptor (Homo sapiens) (UniProt P18825); assay: compounds altering alpha2C-coupled GIRK flux – cell-based, HEK293 alpha2C/GIRK1/2, thallium flux, primary screen (AID 624); conditions: thallium flux BTC fluorescence, at 10 µM, actives lie on both sides;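 also: slope of fluorescence ratio to pre-addition baseline per second over 15 to 24 s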
Sequence (P18825 whole entry, looked up): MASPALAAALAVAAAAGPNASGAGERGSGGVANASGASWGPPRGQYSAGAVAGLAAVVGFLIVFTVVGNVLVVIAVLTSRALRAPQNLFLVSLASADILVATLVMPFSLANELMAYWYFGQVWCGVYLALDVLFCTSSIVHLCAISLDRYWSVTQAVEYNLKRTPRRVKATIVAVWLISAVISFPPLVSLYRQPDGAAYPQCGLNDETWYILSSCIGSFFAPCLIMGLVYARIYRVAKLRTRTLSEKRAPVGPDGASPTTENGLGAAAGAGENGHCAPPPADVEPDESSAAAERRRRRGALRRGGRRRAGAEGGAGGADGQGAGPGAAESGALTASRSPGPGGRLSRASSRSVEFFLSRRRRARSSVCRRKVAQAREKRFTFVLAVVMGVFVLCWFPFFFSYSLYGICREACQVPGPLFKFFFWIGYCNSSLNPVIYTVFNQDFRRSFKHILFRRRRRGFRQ
The source made the active and inactive calls.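 The calls were made as follows: active = fluorescence slope after compound addition differing from the mean of all screened samples at 99.7% confidence, in either direction; inactive = the rest.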
Can you answer with just one of these options? TRUE for active, FALSE for inactive

I'd appreciate the recorded outcome for Cc1nc2ccc(CCO)cc2s1 from this test. FALSE

Check CS(=O)(=O)N1CCCC(C(=O)N2CCOCC2)C1 (stereo unspecified) too. FALSE

Let us now turn to CCN(CC)c1ccc(-c2c(C#N)c(N)nc(OC)c2C#N)cc1 FALSE

Likewise for CN(C)CCNC(=O)c1ccc(COCC(F)(F)F)cc1 ? FALSE

Queued: O=C(C1CCCN(S(=O)(=O)c2cnc[nH]2)C1)N1CC(=O)N(CCc2ccccc2)C(=O)C1 (stereo unspecified) FALSE

Check CCc1ccccc1-n1c(SCC(=O)N2CCCC2)nnc1-c1ccccn1 too. FALSE

And the next one, Cc1nnc(SCC(=O)N2c3ccccc3CC2C)s1 (stereo unspecified) ? FALSE

Subsequent entry: CN(c1ccccc1C(N)=O)S(=O)(=O)c1ccccc1 FALSE

Now the same for CCS(=O)(=O)N1CCCC(C(=O)NCc2ccccc2Cl)C1 (stereo unspecified) FALSE

COc1cccc(C2CC(c3c(Cl)cccc3Cl)n3nc(N)nc3N2)c1 (stereo unspecified) ? FALSE

What do you get for Cn1ccnc1SCC(=O)Nc1ccc2ccccc2c1 ? FALSE

O=C(NC1CCCCC1)C1CCCN1C(=O)NCc1ccccc1 (stereo unspecified) , same question. FALSE

Then this molecule: CCOc1cc(C(=O)N(C)Cc2cc3ccccc3[nH]c2=O)cc(OCC)c1OCC FALSE

Please do the same for Oc1cccc(C=NCc2ccccc2)c1O as well. FALSE

What do we get for Clc1cccc(Nc2c3c(nc4ncnn24)CCC3)c1 ? FALSE

Now the same for CCOc1ccc2nc(NC(=O)CSc3nc4ccccc4c(=O)n3Cc3ccco3)sc2c1 TRUE

// same read-out, input: CCCCP(=O)(CCCC)Cc1ccccc1O FALSE

Let us now turn to CCc1nc(N)c(C#N)c(-c2ccc(OC)c(OC)c2)c1C FALSE

Follow-up entry: CCOC(=O)N1CCC(NC(=O)CCN2C(=O)COc3ccccc32)CC1 FALSE

What do you have for Cc1ccc2nc(-c3ccc4c(c3)OCCO4)cc(C(=O)O)c2c1 ? FALSE

CCCCn1c(NCc2ccccc2O)nc2ccccc21 ? FALSE

###

Record form. Attribute: cell count. Fill in for each entry.
assay: inhibitors of TNFa-induced NFkB p65 translocation, primary screen, imaging, HUVEC, MLSMR starter and 10KST1 sets (AID 438); settings: HUVEC TNFa-induced p65 nuclear translocation; measured here: nuclei count (cytotoxicity indicator), at 2.08 µM;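 also: compound added about 3h40 before a 20 min TNFalpha stimulation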
Reply: number alone, nothing else.

What value of cell count has been reported for the following molecule? COc1cc2c(cc1NC(=O)CN1CCN(S(=O)(=O)c3ccc(F)cc3)CC1)oc1ccccc12 583

What about this molecule? COC(=O)c1cccc(NC(=O)CSc2nnc(COc3ccc(C#N)cc3)n2-c2ccccc2)c1 599

Moving on to Cc1cccc(Cc2nnc(NC(=O)c3cccc(S(=O)(=O)N4CCOCC4)c3)s2)c1 424
